test system: 817829-284-R-J1-PDC complex spheroid viability; assay: Anticancer human tumor 817829-284-R-J1-PDC patient-derived colon adenocarcinoma cell line growth inhibition [POLQ]; settings: curve of first compound; second compound 0.0316 µM;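 note: spheroids exposed to compounds for 7 days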
Reported IC50 values for the following molecules.
Report the value in nM with no unit label.

The examples below pair each entry with its known result.
O=C(c1cc(Cc2n[nH]c(=O)c3ccccc23)ccc1F)N1CCN(C(=O)C2CC2)CC1 + COC1C(OC(N)=O)C(O)C(Oc2ccc3c(O)c(NC(=O)c4ccc(O)c(CC=C(C)C)c4)c(=O)oc3c2C)OC1(C)C: 2180
CC[C@@]1(O)C(=O)OCc2c1cc1n(c2=O)Cc2cc3c(CN(C)C)c(O)ccc3nc2-1 + Cc1cccc(N(C)C(=O)C2C(O)CCN2c2nc(C)cc(C(F)(F)F)c2C#N)c1: 6.93
C=CC(=O)N1CCN(c2nc(=O)n(-c3c(C)ccnc3C(C)C)c3nc(-c4c(O)cccc4F)c(F)cc23)C(C)C1 (stereo not given) + Cc1cccc(N(C)C(=O)C2C(O)CCN2c2nc(C)cc(C(F)(F)F)c2C#N)c1: 9400
CCCS(=O)(=O)Nc1ccc(F)c(C(=O)c2c[nH]c3ncc(-c4ccc(Cl)cc4)cc23)c1F + Nc1ccc(C#CCN(C(=O)Cc2ncc(C(F)(F)F)cc2C(F)(F)F)c2ccc(F)cc2)nn1: 4470
CC[C@@]1(O)C(=O)OCc2c1cc1n(c2=O)Cc2cc3c(CN(C)C)c(O)ccc3nc2-1 + COC1C(OC(N)=O)C(O)C(Oc2ccc3c(O)c(NC(=O)c4ccc(O)c(CC=C(C)C)c4)c(=O)oc3c2C)OC1(C)C: 4.86
CC1COCCN1c1cc(-c2ccnn2C)c2ccnc(-c3ccn[nH]3)c2n1 (stereo not given) + Nc1ccc(C#CCN(C(=O)Cc2ncc(C(F)(F)F)cc2C(F)(F)F)c2ccc(F)cc2)nn1: 45.7
O=C(Nc1ccc(O)c(NS(=O)(=O)c2ccc(F)cc2)c1)c1ccc(-c2ccccc2)cc1 + Cc1cccc(N(C)C(=O)C2C(O)CCN2c2nc(C)cc(C(F)(F)F)c2C#N)c1: 8080

Could you share which IC50 value was measured for CCc1cc2c(N3CCc4c(cc(Cn5ccnc5)cc4-c4cn(C)nc4C(F)(F)F)C3=O)cc(C)nc2c(OC)n1 + Nc1ccc(C#CCN(C(=O)Cc2ncc(C(F)(F)F)cc2C(F)(F)F)c2ccc(F)cc2)nn1 ?
1750
